# Assay system: cAMP and cAMP-inhibited cGMP 3',5'-cyclic phosphodiesterase 10A (Homo sapiens)
# Sequence (Q9Y233 whole entry): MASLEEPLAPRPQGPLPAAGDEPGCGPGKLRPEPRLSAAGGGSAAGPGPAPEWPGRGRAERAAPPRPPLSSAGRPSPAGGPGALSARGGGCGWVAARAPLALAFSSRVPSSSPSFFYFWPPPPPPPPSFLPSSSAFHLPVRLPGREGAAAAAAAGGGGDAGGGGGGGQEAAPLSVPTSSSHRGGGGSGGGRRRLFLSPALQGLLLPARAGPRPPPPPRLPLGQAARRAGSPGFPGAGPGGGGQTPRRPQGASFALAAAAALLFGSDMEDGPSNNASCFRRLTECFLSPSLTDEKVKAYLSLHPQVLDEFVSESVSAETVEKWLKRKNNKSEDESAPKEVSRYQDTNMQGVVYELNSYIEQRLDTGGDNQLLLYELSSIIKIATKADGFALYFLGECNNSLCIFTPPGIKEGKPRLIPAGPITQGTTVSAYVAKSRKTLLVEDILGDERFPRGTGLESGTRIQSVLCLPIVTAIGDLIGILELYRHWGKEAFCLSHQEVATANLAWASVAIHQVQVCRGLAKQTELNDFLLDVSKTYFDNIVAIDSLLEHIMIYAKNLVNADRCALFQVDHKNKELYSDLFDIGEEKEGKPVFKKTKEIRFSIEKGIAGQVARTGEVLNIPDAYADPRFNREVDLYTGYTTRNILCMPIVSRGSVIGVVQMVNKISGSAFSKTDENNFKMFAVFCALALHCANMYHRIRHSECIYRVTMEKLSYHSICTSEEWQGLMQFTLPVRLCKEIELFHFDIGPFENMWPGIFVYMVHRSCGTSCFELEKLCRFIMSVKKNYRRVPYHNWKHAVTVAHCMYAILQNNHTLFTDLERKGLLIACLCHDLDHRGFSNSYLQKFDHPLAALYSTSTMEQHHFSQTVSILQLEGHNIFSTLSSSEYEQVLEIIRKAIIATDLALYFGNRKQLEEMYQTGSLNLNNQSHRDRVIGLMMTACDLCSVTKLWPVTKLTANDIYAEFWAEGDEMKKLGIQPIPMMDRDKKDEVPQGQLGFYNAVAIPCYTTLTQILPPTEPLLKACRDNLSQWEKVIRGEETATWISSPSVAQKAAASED
# Protocol summary: Diaxonhit Phosphodiesterase Assay: The phosphodiesterase assay was developed using the LANCE cAMP kit (PerkinElmer). The assay buffer contained HBSS with 5 mM HEPES, 0.1% BSA, and 1.5 mM MgCl2, pH 7.4. PDE10A (BPS Bioscience) was used at 200 pg/well (with a specific activity of 3200 pmole/min/ug with assay conditions: 10 mM Tris-HCl, pH 7.4, 10 mM MgCl2, 1 mM MnCl2, 200 uM cAMP, 2.5 kU 5' nucleotidase, 37° C., 20 min) and PDE4D3 (BPS Bioscience) was used at 100 pg/well (with a specific activity of 32713 pmole/min/ug with assay conditions: 10 mM Tris-HCl, pH 7.4, 10 mM MgCl2, 1 mM MnCl2, 200 uM cAMP, 2.5 kU 5' nucleotidase, 37° C., 20 min). The Biotin-cAMP tracer, supplied in 10 mmol/L Tris-HCl buffered (pH 8.0) salt solution with 1 mmol/L ethylenediaminetetraacetic acid (EDTA), 0.1% bovine serum albumin (BSA), and 0.05% sodium azide, is used at a dilution of 1/375. The assay detection mixture contained the LANCE Eu-W8044 labeled streptavidin 1/2250 (supplied in 50 mmol/L Tris-HCl buffer).
pIC50: −log10 of the molar value.
Parameter: pIC50

Solved entries:
# Compound string, Assay system, pIC50
measured = [
    ("CCn1ncc2c(O)c(Cc3cncc4cc(OC)c(OC)cc34)cnc21", "cAMP and cAMP-inhibited cGMP 3',5'-cyclic phosphodiesterase 10A (Homo sapiens)", 6.62),
    ("COCc1ncc(Cc2ccc3cccc(OCC(N)=O)c3n2)c2cc(OC)c(OC)cc12", "cAMP and cAMP-inhibited cGMP 3',5'-cyclic phosphodiesterase 10A (Homo sapiens)", 7.68),
    ("COc1cc2cncc(Cc3ccc4oc(-c5ccc(CO)cc5)nc4c3)c2cc1OC", "cAMP and cAMP-inhibited cGMP 3',5'-cyclic phosphodiesterase 10A (Homo sapiens)", 7.72),
    ("COc1cc2cncc(Cc3cnc4cc(C)ccc4c3)c2cc1OC", "cAMP and cAMP-inhibited cGMP 3',5'-cyclic phosphodiesterase 10A (Homo sapiens)", 8.92),
    ("CCOC(=O)COc1cccc2ccc(Cc3cncc4cc(OC)c(OC)cc34)nc12", "cAMP and cAMP-inhibited cGMP 3',5'-cyclic phosphodiesterase 10A (Homo sapiens)", 7.29),
]

a = CCc1ncc(Cc2ccc3cccc(OCCC(=O)O)c3n2)c2cc(OC)c(OC)cc12
b = CCc1ncc(Cc2ccc3cccc(NC(=O)C(N)=O)c3n2)c2cc(OC)c(OC)cc12
c = COCc1ncc(Cc2ccc3cccc(NS(N)(=O)=O)c3n2)c2cc(OC)c(OC)cc12
Problem: Rank the items in ascending order with respect to pIC50. Answer by writing out the labels in the requested order.
Solution: b, a, c
(b: 7.77, a: 8.30, c: 9.74)

1 = COc1cc2cncc(Cc3ccc4cccc(N)c4n3)c2cc1OC
2 = COc1cc2cncc(Cc3ccc4cccc(NS(N)(=O)=O)c4n3)c2cc1OC
Problem: pIC50 comparison. Which is larger, 1 or 2 ? // respond with label for picked entry
Solution: 2
(2: 9.38, 1: 7.89)

I = CCCc1ncc(Cc2cnc3ccccc3c2)c2cc(OC)c(OC)cc12
II = CCCc1ncc(Cc2cc3cc(OCC)ccc3nc2O)c2cc(OC)c(OC)cc12
Problem: pIC50 comparison. Which is larger, I or II ? // respond with label for picked entry
Solution: I

P = CCc1ncc(Cc2ccc3cccc(C#N)c3n2)c2cc(OC)c(OC)cc12
Q = COc1ccc2nc(O)c(Cc3cncc4cc(OC)c(OC)cc34)cc2c1
R = COc1cc2cncc(Cc3ccc4oc(-c5ccccc5CO)nc4c3)c2cc1OC
S = COc1cc2cncc(Cc3ccc4ccccc4n3)c2cc1OC
Problem: Highest pIC50 first, then in falling order down to the smallest. Answer by writing out the labels in the requested order.
Solution: Q, P, R, S
(Q: 7.60, P: 7.34, R: 7.02, S: 6.68)

A = CCCc1ncc(Cc2ccc3cccc(OCC(=O)NC)c3n2)c2cc(OC)c(OC)cc12
B = CCCc1ncc(Cc2ccc3cccc(OC(C)=O)c3n2)c2cc(OC)c(OC)cc12
Problem: Pick one: A or B . Which one has the lower reported pIC50? // respond with label for picked entry
Solution: B
(B: 6.96, A: 7.29)

a = CCOC(=O)COc1cccc2ccc(Cc3cnc(COC)c4cc(OC)c(OC)cc34)nc12
b = COc1cc2cncc(Cc3ccc4oc(-c5cccc(CO)c5)nc4c3)c2cc1OC
c = CCCc1ncc(Cc2cc3ccccc3cn2)c2cc(OC)c(OC)cc12
Problem: Rank the items in ascending order with respect to pIC50. Answer by writing out the labels in the requested order.
Solution: c, a, b

A = COc1cc2cncc(Cc3cc4ccccc4cn3)c2cc1OC
B = COc1cc2cncc(Cc3cnc4ccc(O)cc4c3)c2cc1OC
Problem: pIC50 comparison. Which is larger, A or B ? // respond with label for picked entry
Solution: B

1 = COc1ccc2cc(Cc3cncc4cc(OC)c(OC)cc34)ccc2c1
2 = COc1cc2cncc(Cc3cc4ccccc4nc3N(C)C)c2cc1OC
Problem: pIC50 comparison. Which is larger, 1 or 2 ? // respond with label for picked entry
Solution: 1
